- Experimental System: CLK3 (Homo sapiens (Human))
- Sequence (P49761 whole entry): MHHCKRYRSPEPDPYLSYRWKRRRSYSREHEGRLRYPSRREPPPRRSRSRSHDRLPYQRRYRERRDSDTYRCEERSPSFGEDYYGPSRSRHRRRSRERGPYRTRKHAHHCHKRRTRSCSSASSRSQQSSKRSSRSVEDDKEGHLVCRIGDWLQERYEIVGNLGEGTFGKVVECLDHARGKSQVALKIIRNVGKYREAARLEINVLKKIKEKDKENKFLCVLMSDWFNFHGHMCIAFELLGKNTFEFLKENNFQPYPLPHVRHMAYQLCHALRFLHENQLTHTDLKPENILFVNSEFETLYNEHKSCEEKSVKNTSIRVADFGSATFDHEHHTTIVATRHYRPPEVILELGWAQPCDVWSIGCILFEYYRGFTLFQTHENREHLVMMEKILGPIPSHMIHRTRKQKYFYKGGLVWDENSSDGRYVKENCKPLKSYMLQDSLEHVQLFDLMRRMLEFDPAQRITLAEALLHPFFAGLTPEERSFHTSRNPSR
Below, each entry is listed alongside its reported IC50.
Readout Type: IC50

INSERT INTO assay_data (smiles_text, readout_type, measured) VALUES
  ('CCOc1nn(CCO)c2c1/C=C/c1n[nH]c3ccc(cc13)-c1cnn(C)c1O[C@@H](C)CN(C(C)C)C2', 'IC50', '23 nM'),
  ('CCOc1nn(CCO)c2c1/C=C/c1n[nH]c3ccc(cc13)-c1cnn(C)c1O[C@@H](C)CN(C)C2', 'IC50', '19.4 nM'),
  ('Cc1nn(C)c2c1/C=C/c1n[nH]c3ccc(cc13)-c1cnn(C)c1O[C@@H](C)CN(C)C2', 'IC50', '112 nM'),
  ('Cc1nn(CCO)c2c1/C=C/c1n[nH]c3cc(Cl)c(cc13)-c1cnn(C)c1O[C@@H](C)CN(C)C2', 'IC50', '1000 nM');

Reference source for all entries: patent US20250353864A1
